Assay: chemical genetic growth profiling, strain panel (AID 1159580);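 further: tested at 20 µM; growth read once vehicle control cultures reached saturation at 30 °C; 1 = growth at the plate median or of vehicle wells; lower values mean less growth of the strain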
Conditions: S. cerevisiae deletion strains, growth OD, locus YKL085W, strain MDH1
The campaign covered roughly 5,500 compounds. About 2,000 (36%) were called active. Not shown: some 18% with an inconclusive outcome. No stated cut-off is given here; in the data, active means normalized growth mostly below about 0.91 (no sharp cut-off); inconclusive means no clear call, values can overlap the other calls; inactive means mostly above about 0.92. The list shows a part of the results.
Use one of these outcomes when replying: y for active, n for inactive

Solved cases (5 shown):
COC(=O)/C=C/C(C)=C/C=C/C(C)=C/C=C/C=C(C)/C=C/C=C(C)/C=C/C(=O)O: n
CCn1cc(C(=O)O)c(=O)c2cc(F)c(N3CCNC(C)C3)c(F)c21 (stereo not given): n
CCCCCCCCC(=O)NCc1ccc(O)c(OC)c1: n
CC[C@@H](C(=O)C(C)[C@@H](O)[C@H](C)CCc1ccc(C)c(O)c1C(=O)O)C1OC(CC)(C2CC[C@](O)(CC)[C@H](C)O2)C[C@@H]1C (stereo not given in full): y
C[C@]12CCC(=O)C=C1C=CC1C2CC[C@@]2(C)C1CC[C@@]2(O)CCC(=O)O (stereo not given in full): n

Query: Given CC(=O)S[C@@H]1CC2=CC(=O)CC[C@]2(C)[C@H]2CC[C@@]3(C)[C@@H](CC[C@@]34CCC(=O)O4)C12 (stereo not given in full) , state the outcome it received in this test.
Reply: n

Query: Given `CC[C@@]1(O)C[C@H](O[C@H]2C[C@H](N(C)C)[C@H](O)[C@H](C)O2)c2c(cc3c(c2O)C(=O)c2c(O)cccc2C3=O)[C@H]1C(=O)OC` , state the outcome it received in this test.
Reply: y

Query: Given `CC[C@H]1OC(=O)[C@H](C)[C@@H](O[C@H]2C[C@@](C)(OC)[C@@H](O)[C@H](C)O2)[C@H](C)[C@@H](O[C@@H]2O[C@H](C)C[C@H](N(C)C)[C@H]2O)[C@](C)(OC)C[C@@H](C)C(=O)[C@H](C)[C@@H](O)[C@]1(C)O` , state the outcome it received in this test.
Reply: n

Query: Given `CCCCC[C@H]1C(=O)O[C@H](C)[C@H](NC(=O)c2cccc(NC=O)c2O)C(=O)O[C@@H](C)[C@@H]1OC(=O)CC(C)C` , state the outcome it received in this test.
Reply: n

Query: Given `O=C(O)c1cc2cc(F)ccc2[nH]1` , state the outcome it received in this test.
Reply: n

###

Assay: chemical genetic growth profiling, strain panel (AID 1159580);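 further: tested at 20 µM; growth read once vehicle control cultures reached saturation at 30 °C; 1 = growth at the plate median or of vehicle wells; lower values mean less growth of the strain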
Conditions: S. cerevisiae deletion strains, growth OD, locus YGL227W, strain vid30, hits give low values
About 2,000 (36%) of roughly 5,500 compounds were called active. Not shown: some 18% with an inconclusive outcome. The list shows a part of the results.
Listing of recorded normalized growth by entry.
Returns: the value as a bare number; no unit string appended.

CC[C@@]1(O)C[C@H](O[C@H]2C[C@H](N(C)C)[C@H](O)[C@H](C)O2)c2c(cc3c(c2O)C(=O)c2c(O)ccc(O)c2C3=O)[C@H]1C(=O)OC: 1.02
CCN(CC)Cc1ccc(Nc2ccnc3cc(Cl)ccc23)cc1O: 1.01
CNC(=O)O/N=C(\C)SC: 1.01
NS(=O)(=O)c1cc2c(cc1Cl)NC=NS2(=O)=O: 0.988
COc1ccc(C2CNC(=O)C2)cc1OC1CCCC1 (stereo unspecified): 1.01

API: the following record is the query input.
Query: Entry `CC[C@@]1(O)C[C@H](O)c2c(cc3c(c2O)C(=O)c2c(O)ccc(O)c2C3=O)[C@H]1C(=O)OC` has what normalized growth?
Reply: 1.01
